# pIC50 values compiled below
Sequence of the target: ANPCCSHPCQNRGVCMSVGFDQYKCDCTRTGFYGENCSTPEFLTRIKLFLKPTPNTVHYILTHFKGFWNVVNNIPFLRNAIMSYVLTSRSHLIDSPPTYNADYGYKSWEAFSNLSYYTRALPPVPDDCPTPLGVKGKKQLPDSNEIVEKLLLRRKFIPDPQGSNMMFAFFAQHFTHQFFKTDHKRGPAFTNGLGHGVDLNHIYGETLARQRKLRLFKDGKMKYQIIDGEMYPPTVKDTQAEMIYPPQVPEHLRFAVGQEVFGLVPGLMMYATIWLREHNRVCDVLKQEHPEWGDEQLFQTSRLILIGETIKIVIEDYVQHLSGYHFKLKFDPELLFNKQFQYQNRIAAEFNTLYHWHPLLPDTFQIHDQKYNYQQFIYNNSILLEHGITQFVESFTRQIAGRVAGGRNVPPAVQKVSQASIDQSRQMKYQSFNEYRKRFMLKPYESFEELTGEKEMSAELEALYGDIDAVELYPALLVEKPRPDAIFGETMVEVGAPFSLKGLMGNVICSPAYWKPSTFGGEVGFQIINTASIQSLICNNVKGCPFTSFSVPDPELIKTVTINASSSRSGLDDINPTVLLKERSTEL
pIC50: −log10 of the molar value.
Result Type: pIC50

NS(=O)(=O)c1ccc(N2N=C(c3ccc(F)cc3F)CC2c2ccc3c(c2)OCCO3)cc1 (stereo not drawn) = 5.75
COc1ccc(C2=NN(c3ccc(S(N)(=O)=O)cc3)C(c3ccc4c(c3)OCCO4)C2)cc1 (stereo not drawn) = 5.82
COc1cccc(C2=NN(c3ccc(S(N)(=O)=O)cc3)C(c3ccc4c(c3)OCCO4)C2)c1 (stereo not drawn) = 5.58
NS(=O)(=O)c1ccc(N2N=C(c3ccc(I)cc3)CC2c2ccc3c(c2)OCO3)cc1 (stereo not drawn) = 5.92
Cc1cc(C2=NN(c3ccc(S(N)(=O)=O)cc3)C(c3ccc4c(c3)OCCO4)C2)ccc1F (stereo not drawn) = 5.83
NS(=O)(=O)c1ccc(N2N=C(c3ccccc3)CC2c2ccc3c(c2)OCCO3)cc1 (stereo not drawn) = 5.74
